Data origin, for the record: paper PMC3074303

Target: arrestin-1 (visual arrestin) (Bos taurus, UniProt P08168, F197A/F85A)
Sequence (P08168 whole entry F85A/F197A): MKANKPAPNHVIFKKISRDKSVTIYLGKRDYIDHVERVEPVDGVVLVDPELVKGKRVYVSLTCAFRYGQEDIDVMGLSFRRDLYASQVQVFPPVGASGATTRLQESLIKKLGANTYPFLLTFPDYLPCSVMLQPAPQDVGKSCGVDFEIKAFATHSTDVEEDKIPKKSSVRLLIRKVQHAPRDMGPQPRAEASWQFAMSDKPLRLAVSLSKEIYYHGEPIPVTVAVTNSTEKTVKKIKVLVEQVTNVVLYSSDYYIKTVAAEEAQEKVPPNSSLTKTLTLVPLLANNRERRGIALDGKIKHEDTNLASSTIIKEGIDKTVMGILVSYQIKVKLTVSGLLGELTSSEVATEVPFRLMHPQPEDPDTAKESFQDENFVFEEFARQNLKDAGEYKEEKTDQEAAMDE
Experiment: 2D 1H-15N TROSY NMR chemical shift titration fitted to a […] model
Experimental endpoint: Kd (µM)
Your answer is read as µM, so omit the unit and give the number.

Req: Query: Kd; subject: O=P(O)(O)O[C@H]1[C@H](OP(=O)(O)O)[C@@H](OP(=O)(O)O)[C@H](OP(=O)(O)O)[C@@H](OP(=O)(O)O)[C@H]1OP(=O)(O)O [IP6]
Resp: 160
